Recorded values, source ChEMBL document CHEMBL4334511.

Task for the reader: assign each of the following compounds its reported pIC50.
System: Enterococcus faecalis
Assay: Antibacterial activity against vancomycin-resistant Enterococcus faecalis AUS-RBWH-VRE-01 assessed as reduction in […] growth incubated for 24 hrs by spectrophotometry based broth microdilution assay
Format: functional, organism-based
Settings: Enterococcus faecalis, AUS-RBWH-VRE-01, 24 h; read-out: IC50
Give bare numbers, as −log10 of the molar value.

Some solved cases for reference:
[[record]]
smilestext = "CC(C)[C@H]1CC[C@@](O)(COC(=O)C2=C[C@@H]3[C@@H](C(C)C)CC[C@@](O)(COC(=O)/C(=C/[C@@H]4[C@@H](C(C)C)CC[C@@]5(O)COC(=O)[C@@H]45)CO)[C@H]3C(=O)OC2)[C@H]2C(=O)OCC(C(=O)O)=C[C@H]12"
assaytarget = "Enterococcus faecalis"
assayresult = 5.10

[[record]]
smilestext = "CC(C)[C@H]1CC[C@@](O)(COC(=O)C2=C[C@@H]3[C@@H](C(C)C)CC[C@@](O)(COC(=O)/C(=C/[C@H]4C5=C(CC[C@@H]4C(C)C)COC5=O)CO)[C@H]3C(=O)OC2)[C@H]2C(=O)OCC(C(=O)O)=C[C@H]12"
assaytarget = "Enterococcus faecalis"
assayresult = 5.80

[[record]]
smilestext = "CC(C)[C@H]1CC[C@@](O)(COC(=O)/C(=C/[C@@H]2[C@@H](C(C)C)CC[C@@]3(O)COC(=O)[C@@H]23)CO)[C@@H](C(=O)O)[C@@H]1/C=C(\\CO)C(=O)O[C@@]12CC[C@H](C(C)C)[C@@H](/C=C(\\CO)C(=O)O)[C@@H]1C(=O)OC2"
assaytarget = "Enterococcus faecalis"
assayresult = 5.00


Reported pIC50, compound CC(C)[C@H]1CC[C@@](O)(COC(=O)/C(=C/[C@@H]2[C@@H](C(C)C)CC[C@@](O)(COC(=O)/C(=C/[C@H]3C4=C(CC[C@@H]3C(C)C)COC4=O)CO)[C@H]2C(=O)O)CO)[C@H]2C(=O)OCC(C(=O)O)=C[C@H]12 : ____ 6.00
